- System: Mycobacterium tuberculosis
- experiment: Cornell M. t heat shock assay; note: in the data most compounds retested in dose-response had high values
- Type: functional, organism-based
- Set-up: dose or concentration left out as unconfirmed
Hit rate of the full screen: of about 69,000 compounds, about 950 (1.4%) showed an effect of 50% or more. The sample holds strong results, similar compounds and a random draw of the others, so the mix is not that of the screen.
metric.name: Percent Effect (%)
Answer with a number only, understood to be in %.

compound: Cc1nc(C)n(CC2CCCN2Cc2nc3ccccc3c(=O)[nH]2)n1 (configuration not stated)
test.target: Mycobacterium tuberculosis
observed.measurement: -31.26
//
compound: O=S(=O)(CCN1CCCC1Cn1cccn1)c1ccccc1 (configuration not stated)
test.target: Mycobacterium tuberculosis
observed.measurement: 15.63
//
compound: CNC(=O)NC(=O)CN1CCN(CC2CC2)c2ccccc21
test.target: Mycobacterium tuberculosis
observed.measurement: 34.37
//
compound: CN(C(=O)C(c1c(F)cccc1Cl)N(C)C)c1nccs1 (configuration not stated)
test.target: Mycobacterium tuberculosis
observed.measurement: -3.774
//
compound: Cc1cccc(CNC2CCCc3c2cnn3Cc2ccccc2)c1.Cl (configuration not stated)
test.target: Mycobacterium tuberculosis
observed.measurement: -5.892
//
compound: Cn1cc(C2CCCN2CCc2nc3ccccc3c(=O)[nH]2)cn1 (configuration not stated)
test.target: Mycobacterium tuberculosis
observed.measurement: 2.636
//
compound: NC(=O)NC(=O)CCN1CCN(CC2CC2)c2ccccc21
test.target: Mycobacterium tuberculosis
observed.measurement: -11.96
//
compound: O=c1[nH]c(CCN2CCCC2Cn2cccn2)nc2ccccc12 (configuration not stated)
test.target: Mycobacterium tuberculosis
observed.measurement: 50.72

Now for a further compound.
# Percent Effect (compound: "CO[C@H]1COCCN(Cc2c[nH]c3ccccc23)C1" ) is 82.59
